# EC50 annotations
Biological target: T1, human VEGFA165 (human, UniProt P15692-4 27-191)
T1 construct: Bought protein from two suppliers, treated as one molecule; the supplier is named under assay; also called antigen VEGFA
T1 sequence (P15692 other isoform, or with tags, fused parts or gaps limits assumed): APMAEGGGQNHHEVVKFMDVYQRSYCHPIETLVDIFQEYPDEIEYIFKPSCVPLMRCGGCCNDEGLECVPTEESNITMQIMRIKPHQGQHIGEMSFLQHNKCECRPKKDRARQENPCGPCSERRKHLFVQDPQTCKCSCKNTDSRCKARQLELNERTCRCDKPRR
Assay: ELISA, coated human VEGFA165, anti-His detection

BINDER: 2V43-9GS (VHH, Tandem bivalent nanobody) QLQLVESGGGSVQPGGSLRLSCEVSGRTFTSYTMGWFRQAPGKEREFVVAISKGGYKYDSVSLEARFTISKDNTKNTVYLQMNSLKPEDTAVYYCAGTRAYGSSRLRLANTYEYWGQGTQVTVSSGGGGSGGGSQLQLVESGGGSVQPGGSLRLSCEVSGRTFTSYTMGWFRQAPGKEREFVVAISKGGYKYDSVSLEARFTISKDNTKNTVYLQMNSLKPEDTAVYYCAGTRAYGSSRLRLANTYEYWGQGTQVTVSS
UNIT_OF_MEASUREMENT: nM
EC50: 0.17
//
BINDER: 2V31-9GS (VHH, Tandem bivalent nanobody) QLQLVESGGGSVQPGGSLRLSCEVSGRTFASYTMGWFRQAPGKEREFVVAISKGGYKYDAVSLEARFTISKDNTKNTVYLQMNSLKPEDTAVYYCAGTRAYGSSRLRLAKTYEYWGQGTQVTVSSGGGGSGGGSQLQLVESGGGSVQPGGSLRLSCEVSGRTFASYTMGWFRQAPGKEREFVVAISKGGYKYDAVSLEARFTISKDNTKNTVYLQMNSLKPEDTAVYYCAGTRAYGSSRLRLAKTYEYWGQGTQVTVSS
UNIT_OF_MEASUREMENT: nM
EC50: 0.31
//
BINDER: V1-V15 (bispecific antibody) QLQLVESGGGSVQPGGSLRLSCEVSGRTFSSYTMGWFRQAPGKEREFVVAISKGGYKYDSVSLEARFTISKDNTKNTVYLQMNSLKPEDTAVYYCAATRAYGSSRLRLADTYEYWGQGTQVTVSSGGGGSGGGSQLQLVESGGGSVQPGGSLRLSCEVSGRTFASYTMGWFRQAPGKEREFVVAISKGGYKYDSVSLEARFTISKDNTKNTVYLQMNSLKPEDTAVYYCAGTRAYGSSRLRLAETYEYWGQGTQVTVSS
UNIT_OF_MEASUREMENT: nM
EC50: 0.29

Data provenance: patent US20260234232A1
